The reader will find reported cAMP accumulation values listed item by item below.
experimentalTarget: UniProt:P13945
assayName: Agonistic activity against human Beta-3 adrenergic receptor by measuring cAMP accumulation in CHO cells expressing beta3-AR with respect to isoproterenol at a concentration of 10e-7 M
Type: functional, cell-based
Sequence (P13945 whole entry, looked up): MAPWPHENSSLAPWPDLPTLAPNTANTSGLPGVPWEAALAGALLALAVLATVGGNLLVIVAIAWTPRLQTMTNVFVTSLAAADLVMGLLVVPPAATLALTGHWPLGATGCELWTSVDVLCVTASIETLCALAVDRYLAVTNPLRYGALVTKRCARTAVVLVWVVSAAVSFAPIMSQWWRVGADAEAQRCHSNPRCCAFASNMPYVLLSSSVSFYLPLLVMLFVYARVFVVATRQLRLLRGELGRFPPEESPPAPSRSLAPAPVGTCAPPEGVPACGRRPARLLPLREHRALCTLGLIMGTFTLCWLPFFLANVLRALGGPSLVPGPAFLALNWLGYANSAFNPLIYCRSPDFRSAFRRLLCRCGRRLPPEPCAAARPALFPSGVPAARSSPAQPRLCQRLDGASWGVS
Field: numeric (%). Do not append units.

Known cAMP accumulation results, listed for orientation:
compound	cAMP accumulation / %
OC(CNC1CCc2[nH]c3ccccc3c2C1)c1cccc(Cl)c1 (stereo unspecified)	0
Cn1cc(CCNCC(O)c2cccc(Cl)c2)c2ccccc21 (stereo unspecified)	6
Cc1cccc2[nH]cc(CCNCC(O)c3cccc(Cl)c3)c12 (stereo unspecified)	20
Cc1ccc2[nH]cc(CCNCC(O)c3cccc(Cl)c3)c2c1 (stereo unspecified)	7
Cc1[nH]c2ccccc2c1CCNCC(O)c1cccc(Cl)c1 (stereo unspecified)	5

Below: the item to evaluate.
Query :: I have this compound here, Cc1cccc2c(CCNCC(O)c3cccc(Cl)c3)c[nH]c12 (stereo unspecified) , and I need its recorded cAMP accumulation.
Result :: 0

---

experimentalTarget: Beta-3 adrenergic receptor (Homo sapiens)
assayName: Agonism of recombinant human beta-3 adrenergic receptor assayed by measuring cAMP accumulation in CHO cells expressing beta3-AR
Format: functional, cell-based
Sequence (P13945 whole entry): as the sequence (P13945 whole entry, looked up) above
reportedProperty: log10(EC50) (log10 of the value in nM)
Please be aware that the numbers have been log10-transformed from EC50 in nM.

Known log10(EC50) results, listed for orientation:
molecule	experimentalTarget	log10(EC50)
CC(Cc1c[nH]c2cc(Br)ccc12)NCC(O)c1cccc(Cl)c1 (configuration not stated)	Beta-3 adrenergic receptor (Homo sapiens)	1.58
COC(=O)COc1cccc2c(CC(C)NC[C@H](O)c3cccc(Cl)c3)c[nH]c12 (some centres not stated)	Beta-3 adrenergic receptor (Homo sapiens)	-0.04
C[C@H](Cc1c[nH]c2c(OCC(=O)O)cccc12)NC[C@H](O)c1cccc(Cl)c1 [RAFABEGRON]	Beta-3 adrenergic receptor (Homo sapiens)	-1.21

Query :: I have this molecule here, Cc1cccc2[nH]cc(CC(C)NCC(O)c3cccc(Cl)c3)c12 (configuration not stated) , and I need its recorded log10(EC50).
Result :: 1.98

Query :: C[C@H](Cc1c[nH]c2ccccc12)NC[C@@H](O)c1cccc(Cl)c1 , same question.
Result :: 2.34

Query :: CC(Cc1c[nH]c2c(OCc3ccccc3)cccc12)NC[C@H](O)c1cccc(Cl)c1 (some centres not stated) , same question.
Result :: 1.04

Query :: C[C@H](Cc1c[nH]c2ccccc12)NC[C@H](O)c1cccc(Cl)c1 , same question.
Result :: 0.73

Query :: C[C@@H](Cc1c[nH]c2ccccc12)NC[C@H](O)c1cccc(Cl)c1 , same question.
Result :: 2.38

Query :: CC(Cc1c[nH]c2ccccc12)NCC(O)c1cccc(Cl)c1 (mixture of isomers) , same question.
Result :: 1.08

Query :: CC(Cc1c[nH]c2c(O)cccc12)NC[C@H](O)c1cccc(Cl)c1 (some centres not stated) , same question.
Result :: 0.23

Query :: C[C@@H](Cc1c[nH]c2c(OCC(=O)O)cccc12)NC[C@H](O)c1cccc(Cl)c1 , same question.
Result :: 1.00

Query :: COc1cccc2c(C[C@H](C)NC[C@H](O)c3cccc(Cl)c3)c[nH]c12 , same question.
Result :: 2.08

---

experimentalTarget: Beta-3 adrenergic receptor (Homo sapiens)
assayName: Agonistic activity to recombinant human beta-3 adrenergic receptor expressed in CHO cells by measuring cAMP accumulation
Assay type: functional, cell-based
reportedProperty: Intrinsic activity (%)
Field: numeric (%). Do not append units.

Known Intrinsic activity results, listed for orientation:
molecule	unitSymbol	Intrinsic activity
C[C@@H](Cc1c[nH]c2ccccc12)NC[C@H](O)c1cccc(Cl)c1	%	97
COc1cccc2c(C[C@H](C)NC[C@H](O)c3cccc(Cl)c3)c[nH]c12	%	51
CC(Cc1c[nH]c2c(OCc3ccccc3)cccc12)NC[C@H](O)c1cccc(Cl)c1 (some centres not stated)	%	114
COC(=O)COc1cccc2c(CC(C)NC[C@H](O)c3cccc(Cl)c3)c[nH]c12 (some centres not stated)	%	102
COc1cccc2c(C[C@@H](C)NC[C@H](O)c3cccc(Cl)c3)c[nH]c12	%	89
C[C@@H](Cc1c[nH]c2ccccc12)NC[C@@H](O)c1cccc(Cl)c1	%	62

Query :: I have this molecule here, CC(Cc1c[nH]c2ccccc12)NCC(O)c1cccc(Cl)c1 (mixture of isomers) , and I need its recorded Intrinsic activity.
Result :: 114

Data credit: ChEMBL document CHEMBL1136684
